src = ChEMBL document CHEMBL1641513

Kindly supply the reported diameter of the inhibition zone (DIZ) values for the records listed here.
Test system: Enterococcus faecalis
experimental_details: Antibacterial activity against Enterococcus faecalis ATCC 7080 after 24 hrs by paper disk diffusion assay
Assay type: functional

Would you please look over these solved cases?
>>> df
                                 cpd_smiles                      measured_endpoint  endpoint_value
0  O=C(N[C@H](CO)[C@H](O)c1ccc([N+](=O)[O-])cc1)C(Cl)Cl  diameter of the inhibition zone (DIZ)           37 mm
1  CCOC(=O)/C=C1\C(OC(C)=O)=C[C@@H](COC(C)=O)O[C@@H]1OCC(=O)NCc1ccccc1  diameter of the inhibition zone (DIZ)           24 mm
2  CCCCCCCCCCCCNC(=O)CO[C@H]1O[C@H](COC(C)=O)C=C(OC(C)=O)C1=O  diameter of the inhibition zone (DIZ)           24 mm
3  C#CCNC(=O)CO[C@H]1O[C@H](COC(C)=O)C=C(OC(C)=O)/C1=C\C(=O)OCC  diameter of the inhibition zone (DIZ)           24 mm
4  CCCCCCCCCCCCNC(=O)CO[C@H]1O[C@H](COC(C)=O)C=C(OC(C)=O)/C1=C\C(=O)OCC  diameter of the inhibition zone (DIZ)           22 mm

Alright, here's another molecule for you.
Q. Look at this molecule and give its reported diameter of the inhibition zone (DIZ). CCCCCCCCCCCCNC(=O)CO[C@@H]1O[C@H](COC(C)=O)C=C(OC(C)=O)C1=O
A. <12 mm
